- Conditions used: female, Sprague Dawley, rat, plasma, po, 1000 mg/kg
Measured attribute: Tmax

O=C(O)[C@H]1O[C@@H](Oc2c(-c3ccc(O)c(O)c3)oc3cc(O)cc(O)c3c2=O)[C@H](O)[C@@H](O)[C@@H]1O [Quercetin glucuronide, quercetin-3-O-glucuronide]: 6 h

Turning now to a further molecule:
query: Give its Tmax value. Item: `O=C(O)CNC(=O)c1ccccc1`
result: 24 to 36 h

---

- Conditions used: Medium dose (350 mg/kg bw); 12h urine collections; np = no peak
Counter-ions that a name gives are not always drawn.
Measured attribute: Qualitative Tmax (urine collection with greatest excretion)

Below, each entry is followed by its recorded Qualitative Tmax (urine collection with greatest excretion) result.
O=C(O)CCc1cccc(O)c1 [3-OH-PPA, 3-hydroxyphenylpropionic acid]: 0 to 12 h
OC[C@H]1O[C@@H](Oc2cc3c(O)cc(O)cc3[o+]c2-c2cc(O)c(O)c(O)c2)[C@H](O)[C@@H](O)[C@H]1O [Delphinidin Galactoside]: 0 to 12 h
COc1cc(-c2[o+]c3cc(O)cc(O)c3cc2O[C@@H]2O[C@H](CO)[C@@H](O)[C@H](O)[C@H]2O)cc(O)c1O [Petunidin Glucoside, petunidin-3-O-glucoside]: 0 to 12 h
OC[C@H]1O[C@@H](Oc2cc3c(O)cc(O)cc3[o+]c2-c2ccc(O)c(O)c2)[C@H](O)[C@@H](O)[C@@H]1O [Cyanidin Glucoside, cyanidin-3-O-glucoside]: 0 to 24 h
COc1cc(/C=C/C(=O)O)ccc1OS(=O)(=O)O [Ferulic acid sulfate]: 0 to 12 h

query: Give its Qualitative Tmax (urine collection with greatest excretion) value. Item: `COc1cc(/C=C/C(=O)O)ccc1O`
result: 0 to 24 h

query: Give its Qualitative Tmax (urine collection with greatest excretion) value. Item: COc1cc(-c2[o+]c3cc(O)cc(O)c3cc2O[C@@H]2O[C@H](CO)[C@@H](O)[C@H](O)[C@H]2O)cc(OC)c1O [Malvidin Glucoside, malvidin-3-O-glucoside]
result: 0 to 12 h

query: Give its Qualitative Tmax (urine collection with greatest excretion) value. Item: OC[C@H]1O[C@@H](Oc2cc3c(O)cc(O)cc3[o+]c2-c2cc(O)c(O)c(O)c2)[C@H](O)[C@@H](O)[C@@H]1O [Delphinidin Glucoside, delphindin-3-O-glucoside]
result: 0 to 24 h
